Test system: skin
Assay: Affymetrix microarray of skin, DBP-4 hr and analogs vs. untreated; gene selection by log-2 fold change, Wilcoxon, Kendall tau (Tables 8, 9)
Format: in vivo, mouse
Details: gene #42 of Table 8
Attribute: Log2 Expression Level
// return just the number, without any unit appended

These recorded examples may help you get a feel for the data.
* CCN(CC)C(=O)c1cccc(C)c1 [DEET, N,N-diethyl-toluamide] | 7.97
* COC(=O)c1ccccc1C(=O)OC [DMP, dimethylphthalate] | 6.91

**Q:** Looking for the measured Log2 Expression Level of CCCCOC(=O)c1ccccc1C(=O)OCCCC [DBP, dibutylphthalate] , can you help?
**A:** 8.07

**Q:** Bench note: what Log2 Expression Level did CCOC(=O)c1ccccc1C(=O)OCC [DEP, diethylphthalate] show?
**A:** 7.18

**Q:** What value of Log2 Expression Level has been recorded for this entry: CC(C)=O [Acetone]
**A:** 7.03

* * *

Test system: skin
Experiment: Affymetrix microarray of skin, DBP-4 hr and analogs vs. untreated; gene selection by log-2 fold change, Wilcoxon, Kendall tau (Tables 8, 9)
Format: in vivo, mouse
Settings: gene #77 of Table 8
Listing: Log2 Expression Level of selected compounds
The answer should be a number; do not append a unit.

• CCCCOC(=O)c1ccccc1C(=O)OCCCC [DBP, dibutylphthalate] = 9.71
• CCN(CC)C(=O)c1cccc(C)c1 [DEET, N,N-diethyl-toluamide] = 9.62
• COC(=O)c1ccccc1C(=O)OC [DMP, dimethylphthalate] = 8.59
• CCOC(=O)c1ccccc1C(=O)OCC [DEP, diethylphthalate] = 9.75

Please look at the following compound next.
**Q:** # lookup: Log2 Expression Level of CC(C)=O
**A:** 8.48

* * *

Tested on: skin
Assay: Affymetrix microarray of skin, DBP-4 hr and analogs vs. untreated; gene selection by log-2 fold change, Wilcoxon, Kendall tau (Tables 8, 9)
Type: in vivo, mouse
Details: gene #1 of Table 8
readout-name: Log2 Expression Level
Please respond with just the number, no unit label.

- COC(=O)c1ccccc1C(=O)OC [DMP, dimethylphthalate]: 5.82
- CC(C)=O [Acetone]: 5.63

**Q:** Record request: Log2 Expression Level value, item CCOC(=O)c1ccccc1C(=O)OCC [DEP, diethylphthalate]
**A:** 5.52

**Q:** Log2 Expression Level lookup needed for CCN(CC)C(=O)c1cccc(C)c1 [DEET, N,N-diethyl-toluamide] , thanks.
**A:** 6.74

**Q:** Consider the molecule shown here: CCCCOC(=O)c1ccccc1C(=O)OCCCC [DBP, dibutylphthalate] What is its recorded Log2 Expression Level?
**A:** 6.82

* * *

Test system: skin
Test: Affymetrix microarray of skin, DBP-4 hr and analogs vs. untreated; gene selection by log-2 fold change, Wilcoxon, Kendall tau (Tables 8, 9)
Format: in vivo, mouse
Settings: gene #80 of Table 8
Listing of entries alongside the reported Log2 Expression Level.
Number, no unit, nothing else.

Below, 3 compounds whose answers are already recorded.
* CC(C)=O | 12.42
* CCOC(=O)c1ccccc1C(=O)OCC [DEP, diethylphthalate] | 12.79
* COC(=O)c1ccccc1C(=O)OC [DMP, dimethylphthalate] | 12.64

**Q:** Can you share its Log2 Expression Level? I mean this compound: CCN(CC)C(=O)c1cccc(C)c1 [DEET, N,N-diethyl-toluamide]
**A:** 13.18

**Q:** Which Log2 Expression Level is reported for this compound? CCCCOC(=O)c1ccccc1C(=O)OCCCC [DBP, dibutylphthalate]
**A:** 13.23

* * *

Entries and their measured Log2 Expression Level follow.
Tested on: skin
Assay: Affymetrix microarray of skin, DBP-4 hr and analogs vs. untreated; gene selection by log-2 fold change, Wilcoxon, Kendall tau (Tables 8, 9)
Assay type: in vivo, mouse
Settings: gene #81 of Table 8
Response field accepts a number only; no unit should be typed.

**Q:** # get_value(readout='Log2 Expression Level', item= CCCCOC(=O)c1ccccc1C(=O)OCCCC [DBP, dibutylphthalate] )
**A:** 6.69

**Q:** I have this compound here, COC(=O)c1ccccc1C(=O)OC [DMP, dimethylphthalate] , and I need its recorded Log2 Expression Level.
**A:** 5.57

**Q:** For CC(C)=O , what is its reported Log2 Expression Level?
**A:** 5.50

**Q:** Tell me the measured Log2 Expression Level of CCOC(=O)c1ccccc1C(=O)OCC [DEP, diethylphthalate] , please.
**A:** 5.69

**Q:** I'd like to know its Log2 Expression Level. The compound in question is CCN(CC)C(=O)c1cccc(C)c1 [DEET, N,N-diethyl-toluamide]
**A:** 6.94
